# Tested on: E6SM
# Assay Summary: Tested for the antiviral activity against HSV-1 (KOS) in human E6SM cells
# Assay type: functional
Listed here are compounds together with their documented MIC.

Compound | Unit Spec | Inequality Sign | MIC
Cc1ccc(S(=O)(=O)/C=C/[C@H]2OC(n3cnc4c(N)ncnc43)[C@H](O)[C@@H]2O)cc1 (stereo partly drawn) | µg/mL | = | 20
Nc1ncnc2c1ncn2C1O[C@H](/C=C/I)[C@@H](O)[C@H]1O (stereo partly drawn) | µg/mL | > | 100
Nc1ncnc2c1ncn2[C@@H]1O[C@H](/C=C\Br)[C@@H](O)[C@H]1O | µg/mL | = | 70
Nc1ncnc2c1ncn2[C@@H]1O[C@H](/C=C/Br)[C@@H](O)[C@H]1O | µg/mL | = | 150
Nc1ncnc2c1ncn2[C@@H]1O[C@H](/C=C/Cl)[C@@H](O)[C@H]1O | µg/mL | > | 200
Nc1ncnc2c1ncn2[C@@H]1O[C@H](/C=C\I)[C@@H](O)[C@H]1O | µg/mL | > | 200
Nc1ncnc2c1ncn2C1O[C@H](/C=C/F)[C@@H](O)[C@H]1O (stereo partly drawn) | µg/mL | > | 200
Nc1ncnc2c1ncn2[C@@H]1O[C@H](/C=C\Cl)[C@@H](O)[C@H]1O | µg/mL | = | 70

###

# Assay Target: Adenosylhomocysteinase (Homo sapiens)
# Sequence (P23526 2-432 limits assumed): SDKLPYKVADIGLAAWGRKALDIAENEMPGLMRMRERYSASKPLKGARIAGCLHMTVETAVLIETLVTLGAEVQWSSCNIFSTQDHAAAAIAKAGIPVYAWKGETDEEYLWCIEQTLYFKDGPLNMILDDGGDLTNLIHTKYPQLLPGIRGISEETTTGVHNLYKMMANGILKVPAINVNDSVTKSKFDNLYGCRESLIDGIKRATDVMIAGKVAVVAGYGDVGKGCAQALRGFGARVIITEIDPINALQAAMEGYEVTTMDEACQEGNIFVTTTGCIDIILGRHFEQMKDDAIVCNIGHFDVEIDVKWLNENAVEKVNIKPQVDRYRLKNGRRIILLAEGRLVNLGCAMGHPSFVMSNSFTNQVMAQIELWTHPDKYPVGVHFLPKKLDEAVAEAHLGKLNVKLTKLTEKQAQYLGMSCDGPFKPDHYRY
Listed here are compounds together with their documented K inact.

Compound | Unit Spec | K inact
Nc1ncnc2c1ncn2C1O[C@H](/C=C/I)[C@@H](O)[C@H]1O (some centres undefined) | min⁻¹ | 0.058
Nc1ncnc2c1ncn2[C@@H]1O[C@H](/C=C/Cl)[C@@H](O)[C@H]1O | min⁻¹ | 0.014
Nc1ncnc2c1ncn2[C@@H]1O[C@H](/C=C/Br)[C@@H](O)[C@H]1O | min⁻¹ | 0.028
Nc1ncnc2c1ncn2C1O[C@H](/C=C/F)[C@@H](O)[C@H]1O (some centres undefined) | min⁻¹ | 0.01
